Hey, just so you know, these numbers are from paper PMC11433870.

test system: isolated rat brain synaptosomes; assay: Neurotoxicity: reduced glutathione (GSH) level in synaptosomes, substances applied alone; type: cell-based; conditions: 50 µM applied alone, 1 h, compared to control
# maps each entry to its decrease of glutathione (GSH) level

compound_structure_string: CCOC(=O)c1cc(-c2ccc(Br)cc2)n(CCC(=O)NN=Cc2cc(OC)c(O)c(OC)c2)c1C
decrease of glutathione (GSH) level / %: 15
//
compound_structure_string: CCOC(=O)c1cc(-c2ccc(Br)cc2)n(CCC(=O)NN=Cc2ccc(N(C)C)cc2)c1C
decrease of glutathione (GSH) level / %: 25
//
compound_structure_string: CCOC(=O)c1cc(-c2ccc(Br)cc2)n(CC(=O)NN=Cc2cc(OC)c(O)c(OC)c2)c1C
decrease of glutathione (GSH) level / %: 15
//
compound_structure_string: CCOC(=O)c1cc(-c2ccc(Br)cc2)n(CCC(=O)NN=Cc2ccc([N+](=O)[O-])cc2)c1C
decrease of glutathione (GSH) level / %: 25
//
compound_structure_string: CCOC(=O)c1cc(-c2ccc(Br)cc2)n(CC(=O)NN=Cc2ccc(N(C)C)cc2)c1C
decrease of glutathione (GSH) level / %: 25
//
compound_structure_string: CCOC(=O)c1cc(-c2ccc(Br)cc2)n(CC(=O)NN=Cc2ccc(Cl)cc2)c1C
decrease of glutathione (GSH) level / %: 15

----------
system: isolated rat brain synaptosomes; test: Neurotoxicity: synaptosomal viability (MTT), substances applied alone; assay type: cell-based; details: 50 µM applied alone, 1 h, compared to control (untreated synaptosomes)

compound: CCOC(=O)c1cc(-c2ccc(Br)cc2)n(CCC(=O)NN=Cc2ccc(Cl)cc2)c1C [8b]
units: %
decrease of synaptosomal viability: 30
//
compound: CCOC(=O)c1cc(-c2ccc(Br)cc2)n(CCC(=O)NN=Cc2ccc(N(C)C)cc2)c1C [8a]
units: %
decrease of synaptosomal viability: 35
//
compound: CCOC(=O)c1cc(-c2ccc(Br)cc2)n(CC(=O)NN=Cc2ccc([N+](=O)[O-])cc2)c1C [7c]
units: %
decrease of synaptosomal viability: 35
//
compound: CCOC(=O)c1cc(-c2ccc(Br)cc2)n(CC(=O)NN=Cc2ccc(Cl)cc2)c1C [7b]
units: %
decrease of synaptosomal viability: 25
//
compound: CCOC(=O)c1cc(-c2ccc(Br)cc2)n(CCC(=O)NN=Cc2ccc([N+](=O)[O-])cc2)c1C [8c]
units: %
decrease of synaptosomal viability: 30
//
compound: CCOC(=O)c1cc(-c2ccc(Br)cc2)n(CCC(=O)NN=Cc2ccc(OC)cc2OC)c1C [8e]
units: %
decrease of synaptosomal viability: 35
//
compound: CCOC(=O)c1cc(-c2ccc(Br)cc2)n(CCC(=O)NN=Cc2cc(OC)c(O)c(OC)c2)c1C [8d]
units: %
decrease of synaptosomal viability: 20
//
compound: CCOC(=O)c1cc(-c2ccc(Br)cc2)n(CC(=O)NN=Cc2cc(OC)c(O)c(OC)c2)c1C [7d]
units: %
decrease of synaptosomal viability: 20
//
compound: CCOC(=O)c1cc(-c2ccc(Br)cc2)n(CC(=O)NN=Cc2ccc(OC)cc2OC)c1C [7e]
units: %
decrease of synaptosomal viability: 30
//
compound: CCOC(=O)c1cc(-c2ccc(Br)cc2)n(CC(=O)NN=Cc2ccc(N(C)C)cc2)c1C [7a]
units: %
decrease of synaptosomal viability: 30
